Molecular target: anti-CD28 Fab
Sequence (VH, as listed by the source, chain 1 of 2): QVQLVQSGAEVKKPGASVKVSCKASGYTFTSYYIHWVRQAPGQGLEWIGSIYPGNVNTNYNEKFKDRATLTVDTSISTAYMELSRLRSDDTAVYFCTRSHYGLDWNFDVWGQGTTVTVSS
Sequence (VL, as listed by the source, chain 2 of 2): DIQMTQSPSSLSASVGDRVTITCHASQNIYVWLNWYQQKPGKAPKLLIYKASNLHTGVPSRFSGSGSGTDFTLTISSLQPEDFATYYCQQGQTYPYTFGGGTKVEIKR
Assay: competition ELISA, peptide titrated 0-100 uM against 1 nM anti-CD28 Fab, plate-bound CD28 as competitor
OBSERVABLE: pIC50
Answers are plain numbers, as −log10 of the molar value.

LCAAGATYPWPTCL [Peptide-147]: 5.09
SCAAGASYAWPYCL [Peptide-92]: 4.93

Query: I would be grateful if you could share the reported pIC50 for TCSAGASYPWPLCL [Peptide-139] .
Response: 5.66
